# TARGET_OR_TEST_SYSTEM: PRMT5-MEP50 enzyme (Homo sapiens, UniProt O14744)
# Construct: One virus expresses full length human PRMT5 with Flag-tag at N-terminus
# Sequence (O14744 whole entry): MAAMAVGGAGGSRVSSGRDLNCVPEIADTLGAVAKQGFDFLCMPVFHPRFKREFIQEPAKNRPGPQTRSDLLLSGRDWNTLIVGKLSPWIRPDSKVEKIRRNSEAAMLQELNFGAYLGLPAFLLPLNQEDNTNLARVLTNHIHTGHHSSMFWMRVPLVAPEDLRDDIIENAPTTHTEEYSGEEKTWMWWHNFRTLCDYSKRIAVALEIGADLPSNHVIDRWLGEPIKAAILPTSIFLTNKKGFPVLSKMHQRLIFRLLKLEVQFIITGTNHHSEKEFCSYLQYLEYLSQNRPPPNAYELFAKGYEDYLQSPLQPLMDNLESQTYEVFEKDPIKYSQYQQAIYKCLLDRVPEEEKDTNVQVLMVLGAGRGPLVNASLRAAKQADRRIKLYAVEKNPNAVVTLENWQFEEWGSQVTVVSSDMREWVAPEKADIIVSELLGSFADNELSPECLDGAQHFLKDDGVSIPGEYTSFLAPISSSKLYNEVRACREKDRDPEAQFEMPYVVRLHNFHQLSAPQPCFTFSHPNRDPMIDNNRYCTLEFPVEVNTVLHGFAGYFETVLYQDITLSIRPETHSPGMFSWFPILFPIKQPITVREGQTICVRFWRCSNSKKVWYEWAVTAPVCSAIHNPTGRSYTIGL
# Sequence (Q9BQA1 whole entry partner): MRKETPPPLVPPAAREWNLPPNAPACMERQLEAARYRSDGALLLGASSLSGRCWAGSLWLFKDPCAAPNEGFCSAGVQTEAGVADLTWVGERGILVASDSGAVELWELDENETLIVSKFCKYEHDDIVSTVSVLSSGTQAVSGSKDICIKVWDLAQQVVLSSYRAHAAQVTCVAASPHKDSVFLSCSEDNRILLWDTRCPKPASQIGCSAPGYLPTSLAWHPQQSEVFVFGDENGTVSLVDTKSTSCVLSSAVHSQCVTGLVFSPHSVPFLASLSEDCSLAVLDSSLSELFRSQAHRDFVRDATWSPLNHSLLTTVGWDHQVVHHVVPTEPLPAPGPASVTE
# TEST_SUMMARY: In vitro assay (Assay 1): PRMT5-MEP50 high throughput mass spectrometer assay, inhibition of SAH formation
# Format: biochemical
# EXPERIMENTAL_PARAMETERS: individual measurements shown, read-out: pIC50 Assay 1 (converted)
MEASUREMENT_NAME: IC50 (µM)

1) Nc1ncnc2c1ccn2[C@@H]1O[C@H](CN2CCC23CCNCC3)[C@@H](O)[C@H]1O [Compound 112]    0.0331
2) NCCC1CCN(C[C@H]2O[C@@H](n3ccc4c(N)ncnc43)[C@H](O)[C@@H]2O)C1 (stereo partly drawn) [Compound 55]    0.309
3) Nc1ncnc2c1ccn2[C@@H]1O[C@H](CN2CC(C(F)(F)F)CC23CCNCC3)[C@@H](O)[C@H]1O (stereo partly drawn) [Compound 41]    5.75
4) Nc1ncnc2c1ccn2[C@@H]1O[C@H](CN2CCCC23CCN(Cc2nc4ccccc4[nH]2)CC3)[C@@H](O)[C@H]1O [Compound 177]    0.191
5) Nc1ncnn2c([C@@H]3O[C@H](CN4CCCC45CCNCC5)[C@@H](O)[C@H]3O)ccc12 [Compound 133]    0.0288
6) C[C@@]1(O)[C@H](O)[C@@H](CN2CCCC23CCNCC3)O[C@H]1n1cnc2c(N)ncnc21 [Compound 27]    1.35
7) CN(C)CC[C@@H]1CCCN1C[C@H]1O[C@@H](n2ccc3c(N)ncnc32)[C@H](O)[C@@H]1O [Compound 187]    0.0631
8) Nc1ncnc2c1ccn2[C@@H]1O[C@H](CN2CCCC3(CCCN3)C2)[C@@H](O)[C@H]1O (single isomer, unassigned) [Compound 39]    0.0676
9) Nc1ncnc2c1ccn2[C@@H]1O[C@H](CN2CCCC23CCN(CC(F)F)CC3)[C@@H](O)[C@H]1O [Compound 196]    1.15
10) Nc1ncnn2c([C@@H]3O[C@H](CN4CCC45CCNCC5)[C@@H](O)[C@H]3O)ccc12 [Compound 165]    0.871
11) Nc1ncnc2c1ccn2[C@@H]1O[C@H](CN2CCCC23CCCNC3)[C@@H](O)[C@H]1O (single isomer, unassigned) [Compound 120]    2.29
12) Nc1ncnn2c([C@@H]3O[C@H](CN4CCCC45CCN(CCc4ccc(F)cc4)CC5)[C@@H](O)[C@H]3O)ccc12 [Compound 139]    3.24
13) Cc1nc(N)c2ccn([C@@H]3O[C@H](CN4CCCC45CCN(C)CC5)[C@@H](O)[C@H]3O)c2n1 [Compound 30]    0.2

---

# TARGET_OR_TEST_SYSTEM: PRMT5-MEP50 enzyme (Homo sapiens)
# Construct: One virus expresses full length human PRMT5 with Flag-tag at N-terminus
# TEST_SUMMARY: In vitro assay (Assay 1): PRMT5-MEP50 high throughput mass spectrometer assay, inhibition of SAH formation
# Format: biochemical
# EXPERIMENTAL_PARAMETERS: individual measurements shown, read-out: pIC50 Assay 1 (converted)
MEASUREMENT_NAME: IC50 (µM)

1. Nc1ncnc2c1ccn2[C@@H]1O[C@H](CN2CCOC3(CCCNC3)C2)[C@@H](O)[C@H]1O (stereo partly shown)    4.47
2. Nc1ncnn2c([C@@H]3O[C@H](CN4CC(F)(F)CC45CCN(CCc4ccc(F)cc4)CC5)[C@@H](O)[C@H]3O)ccc12    7.24
3. CN1CC2(CCCCN2C[C@H]2O[C@@H](n3cnc4c(N)ncnc43)[C@H](O)[C@@H]2O)C1    12.3
4. NCC[C@@H]1CCCN1C[C@H]1O[C@@H](n2ccc3c(N)ncnc32)[C@H](O)[C@@H]1O    0.0112

---

# TARGET_OR_TEST_SYSTEM: PRMT5-MEP50 enzyme (Homo sapiens)
# Construct: One virus expresses full length human PRMT5 with Flag-tag at N-terminus
# TEST_SUMMARY: In vitro assay (Assay 1): PRMT5-MEP50 high throughput mass spectrometer assay, inhibition of SAH formation
# Type: biochemical
# EXPERIMENTAL_PARAMETERS: individual measurements shown, read-out: pIC50 Assay 1 (converted)
# Source text: EXPERIMENTAL PROCEDURES IN VITRO ASSAY (ASSAY 1) PRMT5-MEP50 enzyme was purchased from Charles River (Argenta). The enzyme complex was produced in insect cells (Sf9) infected simultaneously with two baculoviruses. One virus expresses full length human PRMT5 with Flag-tag at N-terminus, the second virus expresses full length MEP50 with His6-TEV cleavage at N-terminus. […]
MEASUREMENT_NAME: IC50 (nM)

1) Nc1ncnc2c1ccn2[C@@H]1O[C@H](CN2CCCC3(CCCCN3)C2)[C@@H](O)[C@H]1O (single isomer, unassigned) [Compound 36]    1910
2) Nc1ncnc2c1ccn2[C@@H]1O[C@H](CN2CCOCC23CCNC3)[C@@H](O)[C@H]1O (single isomer, unassigned) [Compound 111]    174
3) NC[C@@H]1CC(F)(F)CCN1C[C@H]1O[C@@H](c2ccc3c(N)ncnn23)[C@H](O)[C@@H]1O [Compound 160]    2690
4) CN1CCC2(CCCN2CC2C[C@@H](n3ccc4c(N)ncnc43)[C@H](O)[C@@H]2O)CC1 (some centres unmarked) [Compound 125]    148
5) CN1CCC2(CCCN2C[C@H]2O[C@@H](n3cnc4c(N)ncnc43)[C@H](O)[C@@H]2O)C1 (some centres unmarked) [Compound 13]    955
6) NCC[C@@H]1COCCN1C[C@H]1O[C@@H](c2ccc3c(N)ncnn23)[C@H](O)[C@@H]1O [Compound 134]    200
7) N#CCCN1CCC2(CCCN2C[C@H]2O[C@@H](n3ccc4c(N)ncnc43)[C@H](O)[C@@H]2O)CC1 [Compound 193]    186
8) CC(=O)O[C@H]1[C@@H](O)[C@H](n2ccc3c(N)ncnc32)O[C@@H]1CN1CCCC12CCN(C)CC2 [Compound 99]    174
9) Nc1ncnn2c([C@@H]3O[C@H](CN4CC(F)(F)C[C@H]4CCN4CCCC4)[C@@H](O)[C@H]3O)ccc12 [Compound 155]    2510
10) CNC(=O)CCN1CCC2(CCCN2C[C@H]2O[C@@H](n3ccc4c(N)ncnc43)[C@H](O)[C@@H]2O)CC1 [Compound 195]    537
11) Nc1ncnc2c1ncn2[C@@H]1O[C@H](CN2CCC23CCNCC3)[C@@H](O)[C@H]1O [Compound 81]    355
12) CN1CCC2(CCCN2C[C@H]2O[C@@H](n3cnc4c(N)ncnc43)[C@H](O)[C@@H]2O)CC1 [Compound 1]    219

---

# TARGET_OR_TEST_SYSTEM: PRMT5-MEP50 enzyme (Homo sapiens, UniProt O14744)
# Construct: One virus expresses full length human PRMT5 with Flag-tag at N-terminus
# TEST_SUMMARY: In vitro assay (Assay 1): PRMT5-MEP50 high throughput mass spectrometer assay, inhibition of SAH formation
# Assay type: biochemical
# EXPERIMENTAL_PARAMETERS: individual measurements shown, read-out: pIC50 Assay 1 (converted)
Form field: IC50 (one value per entry).
MEASUREMENT_NAME: IC50 (nM)

1. Nc1ncnc2c1ccn2[C@@H]1O[C@H](CN2CCCC23CCN(C2COC2)CC3)[C@@H](O)[C@H]1O    437
2. CN1CCCC12CCN(C[C@H]1O[C@@H](n3cnc4c(N)ncnc43)[C@H](O)[C@@H]1O)C2 (stereo partly shown)    29500
3. CN(C)CC[C@@H]1CC(F)(F)CN1C[C@H]1O[C@@H](c2ccc3c(N)ncnn23)[C@H](O)[C@@H]1O    2950
4. NCCC1CN(C[C@H]2O[C@@H](n3ccc4c(N)ncnc43)[C@H](O)[C@@H]2O)CCO1 (stereo partly shown)    692
5. CN1CCC2(CCCN2C[C@H]2O[C@@H](n3cc(I)c4c(N)ncnc43)[C@H](O)[C@@H]2O)CC1    10.2

---

Form field: log10 IC50 (one value per entry).
# TARGET_OR_TEST_SYSTEM: PRMT5-MEP50 enzyme (Homo sapiens, UniProt O14744)
# Construct: One virus expresses full length human PRMT5 with Flag-tag at N-terminus
# TEST_SUMMARY: In vitro assay (Assay 1): PRMT5-MEP50 high throughput mass spectrometer assay, inhibition of SAH formation
# Assay type: biochemical
# EXPERIMENTAL_PARAMETERS: individual measurements shown, read-out: pIC50 Assay 1 (converted)
# Text: EXPERIMENTAL PROCEDURES IN VITRO ASSAY (ASSAY 1) PRMT5-MEP50 enzyme was purchased from Charles River (Argenta). The enzyme complex was produced in insect cells (Sf9) infected simultaneously with two baculoviruses. One virus expresses full length human PRMT5 with Flag-tag at N-terminus, the second virus expresses full length MEP50 with His6-TEV cleavage at N-terminus. […]
MEASUREMENT_NAME: log10 IC50 (log10 of the value in µM)

1) NCC[C@H]1CCCN1C[C@H]1O[C@@H](n2cnc3c(N)ncnc32)[C@H](O)[C@@H]1O    -0.14
2) Nc1ncnc2c1ncn2[C@@H]1O[C@H](CN2CCCCC23CNC3)[C@@H](O)[C@H]1O    0.52
3) Nc1ncnc2c1ccn2[C@@H]1C[C@H](C(=O)N2CCCC23CCNCC3)[C@@H](O)[C@H]1O    -2.07
4) Nc1ncnc2c1ccn2[C@@H]1O[C@H](CN2CCOCC23CCNC3)[C@@H](O)[C@H]1O (single isomer, unassigned) [Compound 110]    0.09
5) Nc1ncnc2c1ccn2[C@@H]1O[C@H](CN2CCCC23CCN(CCc2ccc(F)cc2)CC3)[C@@H](O)[C@H]1O    -1.37
6) Nc1ncnc2c1ccn2[C@@H]1O[C@H](CN2CCC(N)C2)[C@@H](O)[C@H]1O (stereo partly shown)    0.19
7) Nc1ncnc2c1ccn2[C@@H]1O[C@H](CN2CCCC3(CNCCO3)C2)[C@@H](O)[C@H]1O (single isomer, unassigned) [Compound 34]    0.60
